Please go through the items and note down their Kd.
- assaySystem: T1, human NKp46 on cells (CHO-K1/NKp46 cells; CD56+ NK cells of human PBMCs) (human, UniProt O76036 22-304)
- T1 construct: whole, on cells; also called NCR1; CD355
- T1 sequence (O76036 22-304): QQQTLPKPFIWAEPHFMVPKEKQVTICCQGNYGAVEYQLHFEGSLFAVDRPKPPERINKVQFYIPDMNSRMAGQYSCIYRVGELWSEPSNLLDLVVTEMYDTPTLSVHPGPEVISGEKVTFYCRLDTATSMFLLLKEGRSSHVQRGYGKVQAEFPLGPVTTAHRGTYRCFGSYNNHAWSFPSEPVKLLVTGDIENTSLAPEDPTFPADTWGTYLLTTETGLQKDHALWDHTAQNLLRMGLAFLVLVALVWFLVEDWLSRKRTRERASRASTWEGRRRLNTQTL
- methodDescription: Kd,app, flow cytometry CHO-K1/NKp46
- Method: Plates were then incubated for 1 hour at room temperature in the dark. Post-incubation, the plates were centrifuged at 500 rpm for 5 minutes and supernatant discarded. Samples were then washed twice in 200 μL of 1× phosphate buffer saline (PBS; Gibco™ 10-010-023) at 500 rpm for 5 minutes. […] The binding affinity of the bicyclic peptides were calculated using a four-parameter logistic regression using Prism GraphPad software.
Numbered stars: 1 amine (or outer) side, 2 acyl side, 3 side chain; on linkers, the order of the positions; unused ones are H or OH. Bridge positions count the residues as written; N and C are the ends. Square brackets hold non-standard residues; d marks the D form. Ends that are not written are not given here. * marks the point of attachment. TATA = O=C(CC[*:1])N1CN(C(=O)CC[*:2])CN(C(=O)CC[*:3])C1; Pent4ynoyl = C#CCCC(=O)*
One number for each entry, in nM.

Example entries and their recorded answers appear below.
binder	measure	resultNumber
ACNLQAPCMQTGKVCAK-NH2 (linker 2-8-15 via TATA (inferred); not fully specified (residue 17); also: AF488 on linker, homodimer of BCY15687; scaffold TATA) [BCY15922]	Kd	1.48
ACYLPDWLCGDEYCA[dK](Pent4ynoyl)-NH2 (linker 2-9-14 via TATA; not fully specified; also: AF488 label on linker, homodimer of BCY15013; scaffold TATA) [BCY15455]	Kd	2.25
ACDLTTHNCQWGICAK-NH2 (linker 2-9-14 via TATA; not fully specified (residue 16); also: homodimer via shared N-(amine-PEG2)-N-bis(PEG3-azide) linker, scaffold TATA) [BCY15921]	Kd	1.48

Next up:
Q: Field request: Kd | item: ACYLPDYLCGDEYCAK (not fully specified; C-terminal D-Lys(PYA) joined to N-(amine-PEG2)-N-bis(PEG3-azide) linker carrying AF488, homodimer of BCY15452; scaffold TATA) [BCY15663]
Ans: 0.3
